Entries and their pEC50 values follow.
Target: T1, human CD24 (human, UniProt P25063 27-59, heavily glycosylated, GPI-anchored (as described in the background))
T1 construct: whole, on cells; Target of all cell-based FACS assays; also called hCD24; Cluster of differentiation 24
T1 chain (looked up): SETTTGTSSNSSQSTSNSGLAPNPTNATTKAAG
Assay: FACS, 5637 cells
The read-out pEC50 is expressed as -log10 of concentration in moles per litre.

Requested field: pEC50. Item: ch56A7E3-hIgG4 (antibody, V domains shown, chimeric) VH: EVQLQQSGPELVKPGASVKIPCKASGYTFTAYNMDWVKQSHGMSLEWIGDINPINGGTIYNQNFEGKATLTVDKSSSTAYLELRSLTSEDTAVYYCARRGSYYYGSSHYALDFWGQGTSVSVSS VL: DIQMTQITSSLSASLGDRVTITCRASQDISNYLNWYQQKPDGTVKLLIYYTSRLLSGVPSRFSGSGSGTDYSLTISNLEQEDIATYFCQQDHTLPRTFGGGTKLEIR
6.86

Requested field: pEC50. Item: 71A4F12 (antibody, V domains shown, mouse monoclonal antibody) VH: EVQLQQSGPELVKPGASVKIPCKASGYTFTAYNMDWVKQSHGMSLEWIGDINPNNGDTVYNQNFKGKATLTVDKSSSTAYMELRSLTSEDTAVYYCARRGSYYYGSSHYALDFWGQGTSVSVSS VL: DIQMTQITSSLSASLGNRVTISCRASQDIRNYLNWYQQKPDGTVKLLIYYTSRLLSGVPSRFSGSGSGTDYSLTISNLEQEDIATYFCQQDNSLPRTFGGGTRLEIR
7.40

Requested field: pEC50. Item: 81A1F8 (antibody, V domains shown, mouse monoclonal antibody) VH: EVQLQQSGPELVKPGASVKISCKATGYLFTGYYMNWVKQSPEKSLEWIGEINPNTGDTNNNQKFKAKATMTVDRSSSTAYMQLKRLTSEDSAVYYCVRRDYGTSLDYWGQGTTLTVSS VL: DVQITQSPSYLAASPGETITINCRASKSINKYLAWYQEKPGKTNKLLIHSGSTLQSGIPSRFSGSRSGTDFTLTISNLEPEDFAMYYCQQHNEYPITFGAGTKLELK
8.48
